Target: T1, CD134 expressed on the cell surface of HT1080_OX40 cells (human, UniProt P43489 29-277); note: test concentration or dose not given here
T1 sequence (looked up): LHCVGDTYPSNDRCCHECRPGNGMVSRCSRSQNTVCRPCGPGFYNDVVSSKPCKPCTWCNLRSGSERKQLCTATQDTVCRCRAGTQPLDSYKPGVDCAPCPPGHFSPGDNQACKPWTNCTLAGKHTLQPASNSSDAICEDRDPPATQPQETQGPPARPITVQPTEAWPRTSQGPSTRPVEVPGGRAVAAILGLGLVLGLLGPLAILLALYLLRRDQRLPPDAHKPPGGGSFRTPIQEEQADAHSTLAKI
Assay: cell-based or functional assay
quantity.name: Functional assay IL-8 (abs. corr.)
Number only, in abs. corr.; omit the unit.

Worked cases, Functional assay IL-8 given:
binder	Functional assay IL-8 / abs. corr.
P018.S.11.A.F05 (antibody, V domains shown, V regions on human Ig constant parts; also called AB134_41) VH: QSLEESGGRLVTPGTPLTLTCTVSGFSLSRYHMSWVRQAPGKGLEYIGYIHTDDTNWYASWAKGRFTISKTSTTVDLKITSPTTEDTATYFCARVSSVGGYYFDLWGQGTLVTVSS VL: DVVMTQTPASVSEPVGGTVTIKCQASEDIYNLLAWYQQKPGQPPKLLIYAASTLASGVPSRFKGSGSGTQFTLTISDLESADAATYYCQNNYLISSYGVGFGGGTEVVVK	0.33
P018.S.12.A.C05 (antibody, V domains shown, V regions on human Ig constant parts; also called AB134_65) VH: QSLEESGGRLVTPGTPLTLTCTASGFSLSNYYMNWVRQAPGKGLEWIGIIDKSGSAYYASWARGRFTISKTSTTVGLKIPSPTTEDTATYFCARGYGGYADHGLGLWGQGTLVTVSS VL: DVVMTQTPASVSEPVGGTVTIKCQASQSIAGWLAWYQQKPGQPPKLLIYQASKLASGVPSRFSGSGSGTEYTLTISDLESDDAATYYCQCTYGSGSGSNGFGGGTEVVVK	0.228

Lab book: Functional assay IL-8 of P018.S.11.A.G02 (antibody, V domains shown, V regions on human Ig constant parts; also called AB134_42) VH: QSVEESGGRLVTPGTPLTLTCTVSGFSLSGYDMSWVRQAPGKGLEWIGYIYGGNTYYANWAKGRFTISKTSTTVDLKMTSPTTEDTATYFCTRVGAGYSGVWAYFNLWGPGTLVTVSS VL: AQVLTQTPSSVSAAVGGTVTINCQSSQSVDSDNYLAWYQQKPGQPPKLLIYDTSKLASGVPSRFTGSGSGTQFTLTISGVQSDDAATYYCQGTYYNAGWYFAFGGGTEVVVK noted as 0.27

Values were extracted from patent US20210253725A1.
